Data origin, for the record: ChEMBL document CHEMBL5042533

system: BaF3; assay: cells; conditions: Mus musculus, BaF3, 72 h
Description: Cytotoxicity against mouse BaF3 cells expressing TEL fused TrkC G623R assessed as inhibition of cell growth incubated for 3 days by CCK-8 assay
measuredMetric: IC50 (nM)
# number only, unit nM dropped from output

Previously resolved entries follow.
O=C(Nc1cnn2ccc(N3CCC[C@@H]3c3cc(F)ccc3F)nc12)N1CC[C@H](O)C1 [LAROTRECTINIB]
1490
C[C@@H]1CCc2ncc(F)cc2[C@H]2CCCN2c2ccn3ncc(c3n2)C(=O)N1 [SELITRECTINIB]
18
Cc1cc(NC(=O)Nc2cc(C(C)(C)C)nn2-c2ccc(C(F)(F)F)cc2)ccc1Nc1ncnc2c1OC(C)(C)C(=O)N2
86
Cc1cc(NC(=O)Nc2cc(C(C)(C)C)nn2-c2ccccc2)ccc1Nc1ncnc2c1OC(C)(C)C(=O)N2
51
Cc1ccc(-n2nc(C(C)(C)C)cc2NC(=O)Nc2ccc(Nc3ncnc4c3OC(C)(C)C(=O)N4)c(C)c2)cc1
58

[Q] Supply measured IC50 of Cc1cc(NC(=O)Nc2cc(C(C)(C)C)nn2-c2ccc(Cl)cc2)ccc1Nc1ncnc2c1OC(C)(C)C(=O)N2 in your reply.
[A] 15

[Q] Tell me measured IC50 for Cc1cc(NC(=O)Nc2cc(C(C)(C)C)nn2-c2ccc(F)c(F)c2)ccc1Nc1ncnc2c1OC(C)(C)C(=O)N2 please.
[A] 34

---

system: BaF3; assay: Cytotoxicity against mouse BaF3 cells expressing LMNA fused TrkA F589L mutant assessed as inhibition of cell growth incubated for 3 days by CCK-8 assay; assay type: functional, cell-based; conditions: BaF3, 72 h
pIC50: −log10 of the molar value.
Hi, to clarify the labels: y covers pIC50 from 8 upward, n covers anything below 8.

Recorded results for 2 molecules are shown here.
Cc1ccc(-n2nc(C(C)(C)C)cc2NC(=O)Nc2ccc(Nc3ncnc4c3OC(C)(C)C(=O)N4)c(C)c2)cc1
y
Cc1cc(NC(=O)Nc2cc(C(C)(C)C)nn2-c2ccccc2)ccc1Nc1ncnc2c1OC(C)(C)C(=O)N2
n

Kindly review the next molecule as well.
[Q] Check this molecule for pIC50 at or above 8: O=C(Nc1cnn2ccc(N3CCC[C@@H]3c3cc(F)ccc3F)nc12)N1CC[C@H](O)C1
[A] n

---

assay: Tmax in Sprague-Dawley rat at 10 mg/kg, po measured up to 24 hrs by HPLC method; type: ADME, organism-based; settings: in vivo
measuredMetric: Tmax (h)
Lab book: enter the figure in h, no units written.

[Q] Read the entry Cc1cc(NC(=O)Nc2cc(C(C)(C)C)nn2-c2ccc(Cl)cc2)ccc1Nc1ncnc2c1OC(C)(C)C(=O)N2 and write its reported Tmax.
[A] 2

---

tested on: BaF3; assay: cells; details: Mus musculus, BaF3, 72 h
Description: Cytotoxicity against mouse BaF3 cells expressing TEL fused TrkC G696C assessed as inhibition of cell growth incubated for 3 days by CCK-8 assay
measuredMetric: pIC50
Please report pIC50 as the negative decimal logarithm of the molar concentration, giving only the number.

Worked cases, pIC50 given:
Cc1ccc(-n2nc(C(C)(C)C)cc2NC(=O)Nc2ccc(Nc3ncnc4c3OC(C)(C)C(=O)N4)c(C)c2)cc1
8.70
Cc1cc(NC(=O)Nc2cc(C(C)(C)C)nn2-c2ccc(C(F)(F)F)cc2)ccc1Nc1ncnc2c1OC(C)(C)C(=O)N2
8.52

[Q] Please look at this compound and report its pIC50: Cc1cc(NC(=O)Nc2cc(C(C)(C)C)nn2-c2ccc(F)c(F)c2)ccc1Nc1ncnc2c1OC(C)(C)C(=O)N2
[A] 8.70

[Q] Please report the measured pIC50 for Cc1cc(NC(=O)Nc2cc(C(C)(C)C)nn2-c2ccc(Cl)cc2)ccc1Nc1ncnc2c1OC(C)(C)C(=O)N2
[A] 8.70

[Q] Please report the measured pIC50 for O=C(Nc1cnn2ccc(N3CCC[C@@H]3c3cc(F)ccc3F)nc12)N1CC[C@H](O)C1
[A] 6.23

[Q] Read off the recorded pIC50 for C[C@@H]1CCc2ncc(F)cc2[C@H]2CCCN2c2ccn3ncc(c3n2)C(=O)N1
[A] 7.30

---

molecular target: Ephrin type-A receptor 8 (Homo sapiens)
Sequence (P29322 whole entry): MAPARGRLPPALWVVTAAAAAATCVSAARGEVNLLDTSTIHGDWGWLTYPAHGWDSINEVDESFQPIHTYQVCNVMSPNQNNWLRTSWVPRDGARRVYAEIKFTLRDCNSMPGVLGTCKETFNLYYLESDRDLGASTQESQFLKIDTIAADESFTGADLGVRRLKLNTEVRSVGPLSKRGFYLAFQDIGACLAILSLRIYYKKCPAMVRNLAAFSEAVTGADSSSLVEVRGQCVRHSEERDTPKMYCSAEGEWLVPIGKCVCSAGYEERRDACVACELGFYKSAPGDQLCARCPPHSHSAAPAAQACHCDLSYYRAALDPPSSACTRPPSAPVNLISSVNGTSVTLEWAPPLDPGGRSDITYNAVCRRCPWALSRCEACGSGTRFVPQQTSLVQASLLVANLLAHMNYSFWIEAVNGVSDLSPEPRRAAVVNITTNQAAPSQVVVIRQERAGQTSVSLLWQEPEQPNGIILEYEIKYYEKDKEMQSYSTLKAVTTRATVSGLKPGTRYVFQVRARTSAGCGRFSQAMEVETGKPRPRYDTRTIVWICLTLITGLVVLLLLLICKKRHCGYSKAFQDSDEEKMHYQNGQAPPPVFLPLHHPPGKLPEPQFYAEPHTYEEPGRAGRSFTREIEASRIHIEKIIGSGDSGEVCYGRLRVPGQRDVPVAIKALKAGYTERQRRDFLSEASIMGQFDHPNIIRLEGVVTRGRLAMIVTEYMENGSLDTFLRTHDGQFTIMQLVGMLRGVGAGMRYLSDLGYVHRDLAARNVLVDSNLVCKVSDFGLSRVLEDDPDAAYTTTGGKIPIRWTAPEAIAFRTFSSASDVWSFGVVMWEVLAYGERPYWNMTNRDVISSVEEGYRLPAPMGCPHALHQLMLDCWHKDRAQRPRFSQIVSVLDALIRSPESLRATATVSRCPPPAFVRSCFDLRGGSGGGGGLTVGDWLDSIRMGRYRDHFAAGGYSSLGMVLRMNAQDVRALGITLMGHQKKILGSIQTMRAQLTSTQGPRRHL
measuredMetric: pIC50
// returns pIC50 (minus log10 of molar concentration), number only

[Q] Please look at Cc1cc(NC(=O)Nc2cc(C(C)(C)C)nn2-c2ccc(Cl)cc2)ccc1Nc1ncnc2c1OC(C)(C)C(=O)N2 and tell me its recorded pIC50 on Ephrin type-A receptor 8 (Homo sapiens).
[A] 7.00

---

Below are pIC50 values measured for UniProt P04629.
The value called pIC50 is obtained by taking minus log10 of the concentration in mol/L.

Some solved entries appear below for comparison.
CC1(C)Oc2c(ncnc2Nc2ccc(NC(=O)Nc3cc(C(C)(C)C)nn3-c3ccccc3)c3ccccc23)NC1=O
7.06
Cc1ccc(-n2nc(C(C)(C)C)cc2NC(=O)Nc2ccc(Nc3ncnc4c3OC(C)(C)C(=O)N4)c(C)c2)cc1
7.66

Below: the item to evaluate.
[Q] Check UniProt P04629 data and give pIC50 for Cc1cc(NC(=O)Nc2cc(C(C)(C)C)nn2-c2ccccc2)ccc1Nc1ncnc2c1OC(C)(C)C(=O)N2 .
[A] 7.89

---

experiment: MRT (0 to t) in Sprague-Dawley rat at 5 mg/kg, iv measured up to 24 hrs by HPLC method; type: ADME, organism-based; conditions: in vivo
measuredMetric: MRT last at 24 h (h)
Reply numerically in h, unit not repeated.

[Q] # return recorded MRT last at 24 h for input Cc1cc(NC(=O)Nc2cc(C(C)(C)C)nn2-c2ccc(Cl)cc2)ccc1Nc1ncnc2c1OC(C)(C)C(=O)N2
[A] 1.07

---

test: cells; details: Homo sapiens, KM12-Luc, 72 h
Description: Cytotoxicity against human KM12-Luc cells expressing TPM3 fused TrkA assessed as inhibition of cell growth incubated for 3 days by CCK-8 assay
measuredMetric: pIC50
Convention used: pIC50 is expressed as -log10 of the molar concentration.

[Q] Assign pIC50 to the following record: Cc1cc(NC(=O)Nc2cc(C(C)(C)C)nn2-c2ccccc2)ccc1Nc1ncnc2c1OC(C)(C)C(=O)N2
[A] 7.68

[Q] Retrieve pIC50 measured for Cc1ccc(-n2nc(C(C)(C)C)cc2NC(=O)Nc2ccc(Nc3ncnc4c3OC(C)(C)C(=O)N4)c(C)c2)cc1 and print it.
[A] 8.22

[Q] // fetch pIC50 given entry Cc1cc(NC(=O)Nc2cc(C(C)(C)C)nn2-c2ccc(F)c(F)c2)ccc1Nc1ncnc2c1OC(C)(C)C(=O)N2
[A] 8.10

[Q] Please list pIC50 recorded for the compound Cc1cc(NC(=O)Nc2cc(C(C)(C)C)nn2-c2ccc(Cl)cc2)ccc1Nc1ncnc2c1OC(C)(C)C(=O)N2
[A] 8.22

---

test system: BaF3; assay: cells; conditions: Mus musculus, BaF3, 72 h
measuredMetric: IC50 (nM)
Number only, in nM; omit the unit.

Cc1cc(NC(=O)Nc2cc(C(C)(C)C)nn2-c2ccc(F)c(F)c2)ccc1Nc1ncnc2c1OC(C)(C)C(=O)N2
1

[Q] Look up BaF3 data: IC50 of O=C(Nc1cnn2ccc(N3CCC[C@@H]3c3cc(F)ccc3F)nc12)N1CC[C@H](O)C1 , then report it.
[A] 1260

[Q] Lab note: BaF3 assay, enter IC50 for Cc1ccc(-n2nc(C(C)(C)C)cc2NC(=O)Nc2ccc(Nc3ncnc4c3OC(C)(C)C(=O)N4)c(C)c2)cc1 here
[A] 1

---

assay: Cmax in Sprague-Dawley rat at 5 mg/kg, iv measured up to 24 hrs by HPLC method; type: ADME, organism-based; design: route intravenous, dose 5 mg/kg, time <=24; details: in vivo
measuredMetric: Cmax
Please state the value followed by its unit.

[Q] Identify Cmax associated with the compound Cc1cc(NC(=O)Nc2cc(C(C)(C)C)nn2-c2ccc(Cl)cc2)ccc1Nc1ncnc2c1OC(C)(C)C(=O)N2
[A] 21300 ng/mL

---

target: High affinity nerve growth factor receptor (Homo sapiens)
Sequence (P04629 whole entry): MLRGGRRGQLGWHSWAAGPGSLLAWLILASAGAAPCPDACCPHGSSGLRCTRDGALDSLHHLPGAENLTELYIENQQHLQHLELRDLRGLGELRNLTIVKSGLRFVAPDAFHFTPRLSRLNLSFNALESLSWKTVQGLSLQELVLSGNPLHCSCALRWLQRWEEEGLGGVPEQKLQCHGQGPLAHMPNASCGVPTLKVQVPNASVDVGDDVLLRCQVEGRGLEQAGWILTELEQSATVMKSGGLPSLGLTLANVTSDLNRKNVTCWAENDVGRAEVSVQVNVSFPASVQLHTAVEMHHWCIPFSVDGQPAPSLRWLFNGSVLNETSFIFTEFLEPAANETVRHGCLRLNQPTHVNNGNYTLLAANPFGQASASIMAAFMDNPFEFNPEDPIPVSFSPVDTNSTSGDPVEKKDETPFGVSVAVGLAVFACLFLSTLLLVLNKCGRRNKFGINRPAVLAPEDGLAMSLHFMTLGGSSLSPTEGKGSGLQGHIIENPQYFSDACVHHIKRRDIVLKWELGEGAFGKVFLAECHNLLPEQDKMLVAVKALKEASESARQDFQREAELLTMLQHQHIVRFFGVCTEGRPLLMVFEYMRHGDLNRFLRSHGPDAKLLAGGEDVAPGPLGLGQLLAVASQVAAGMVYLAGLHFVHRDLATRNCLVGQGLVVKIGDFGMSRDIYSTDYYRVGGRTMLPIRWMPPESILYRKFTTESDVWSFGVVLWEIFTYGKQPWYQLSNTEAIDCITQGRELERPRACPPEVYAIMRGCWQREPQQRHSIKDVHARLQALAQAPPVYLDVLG
Some compounds, each annotated with its measured pIC50.
Entry type: numeric. Quantity: pIC50, the -log10 of concentration in molar units.

Consider the following illustrative entries.
Cc1cc(NC(=O)Nc2cc(C(C)(C)C)nn2-c2ccc(OC(F)(F)F)cc2)ccc1Nc1ncnc2c1OC(C)(C)C(=O)N2
7.34
Cc1cc(NC(=O)Nc2cc(-c3ccccc3)nn2-c2ccccc2)ccc1Nc1ncnc2c1OC(C)(C)C(=O)N2
7.42
CC1(C)Oc2c(ncnc2Nc2ccc(NC(=O)Nc3cc(C(C)(C)C)nn3C(C)(C)C)cc2)NC1=O
5.21

[Q] Return reported pIC50 for target or system High affinity nerve growth factor receptor (Homo sapiens), item Cc1cc(NC(=O)Nc2cc(C3CC3)nn2-c2ccccc2)ccc1Nc1ncnc2c1OC(C)(C)C(=O)N2 .
[A] 7.64

[Q] Send back High affinity nerve growth factor receptor (Homo sapiens) pIC50 of Cc1cc(NC(=O)Nc2cc(C(C)(C)C)nn2-c2ccc(F)cc2)ccc1Nc1ncnc2c1OC(C)(C)C(=O)N2 only.
[A] 7.52

[Q] Give measured pIC50 for Cc1cc(NC(=O)Nc2cc(C(C)(C)C)nn2-c2ccccc2F)ccc1Nc1ncnc2c1OC(C)(C)C(=O)N2 (High affinity nerve growth factor receptor (Homo sapiens)).
[A] 7.70

[Q] # return pIC50 of Cc1cc(NC(=O)Nc2cc(C(C)(C)C)nn2-c2c(F)c(F)c(F)c(F)c2F)ccc1Nc1ncnc2c1OC(C)(C)C(=O)N2 (system: High affinity nerve growth factor receptor (Homo sapiens))
[A] 7.28

[Q] Give pIC50 for CSc1cc(Nc2ncnc3c2OC(C)(C)C(=O)N3)ccc1NC(=O)Nc1cc(C(C)(C)C)nn1-c1ccccc1 tested on High affinity nerve growth factor receptor (Homo sapiens).
[A] 7.05

[Q] State the measured pIC50 (High affinity nerve growth factor receptor (Homo sapiens)) of Cc1cc(NC(=O)Nc2cc(C(C)(C)C)nn2-c2cccc(F)c2)ccc1Nc1ncnc2c1OC(C)(C)C(=O)N2
[A] 7.89
